Assay: Water solubility
Format: physicochemical
Details: sodium carbonate/sodium bicarbonate buffer; pH 10 (25 mM sodium carbonate and 25 mM sodium bicarbonate)
observable: solubility

Which solubility value is on record for `C[C@H]1O[C@@H](n2cc(-c3ccccc3)c3c(Nc4ccc(NS(=O)(=O)C(F)(F)F)cc4)ncnc32)[C@H](O)[C@@H]1O` ?
> 1000 µg/mL

###

System: Rats
Assay: Anti-inflammatory activity, carrageenan paw
Assay type: in vivo, rat
Details: po, 10 mg/kg, one hour before carrageenan; swelling after 3 hours
Procedure: Carrageenan (Type λ) was suspended in sterile PBS at 1% (w/v), autoclaved for 30 minutes, and stored at room temperature. Rats were pretreated with vehicle or AK inhibitor (10 mg/kg) by oral gavage or i.p. administration and the volume of the left hind paw was measured using a water displacement plethysmometer (Stoelting Co., Wood Dale, Ill.). […] The ensuing paw swelling was measured by plethysmometry after 3 hours. […]
Would you kindly list Carrageenan Paw (% inhibition) of paw swelling for each of these compounds?
One number for each entry, in %.

In the examples that follow, each entry is paired with its recorded Carrageenan Paw (% inhibition) of paw swelling.
C[C@H]1O[C@@H](n2cc(-c3ccccc3)c3c(Nc4ccc(CCN5CCNCC5)cc4)ncnc32)[C@H](O)[C@@H]1O 2.5
C[C@H]1O[C@@H](n2cc(I)c3c(NCCc4ccccn4)ncnc32)[C@H](O)[C@@H]1O 69.7
C[C@H]1O[C@@H](n2cc(-c3ccccc3)c3c(Nc4ccc(CCN(C)C)cc4)ncnc32)[C@H](O)[C@@H]1O 7.7

Required: Carrageenan Paw (% inhibition) of paw swelling, one value per compound below.
1. C[C@H]1O[C@@H](n2cc(-c3ccccc3)c3c(Nc4ccc(CCN)cc4)ncnc32)[C@H](O)[C@@H]1O
2. C[C@H]1O[C@@H](n2cc(I)c3c(NCc4ccccn4)ncnc32)[C@H](O)[C@@H]1O
3. C[C@H]1O[C@@H](n2cc(-c3ccccc3)c3c(Nc4ccc(CN(C)C)cc4)ncnc32)[C@H](O)[C@@H]1O
4. CCN(CC)CCNCCc1ccc(Nc2ncnc3c2c(-c2ccccc2)cn3[C@@H]2O[C@H](C)[C@@H](O)[C@H]2O)cc1
5. C[C@H]1O[C@@H](n2cc(-c3cccnc3)c3c(Nc4ccccc4)ncnc32)[C@H](O)[C@@H]1O

1. 12.4
2. 90.6
3. 19.2
4. 4.1
5. 9.8

Source of measurements: patent US5726302A
